Tested on: CAKI-1 renal
Assay: NCI-60 one-dose screen, 48 h (100 = growth as untreated, 0 = no growth, -100 = all killed)
Conditions: 10 µM unless noted
The panel holds about 83,000 compounds, 20% with a hit somewhere; the sample as a whole holds those more often.
With a cut-off of 80%, any growth strictly below it is called y; any growth meeting it or above is called n.

Enquiry: Strictly below 80% in growth? Cn1cnc([N+](=O)[O-])c1S(=O)(=O)Oc1ccc(Cl)cc1
Return: y

Enquiry: Strictly below 80% in growth? CC(C)(C)c1ccc(C(O)CCCN2CCC(C(O)(c3ccccc3)c3ccccc3)CC2)cc1 (stereo not given)
Return: y

Enquiry: Strictly below 80% in growth? C[C@@H]1CC[C@H]2[C@@H](C)C(O)O[C@@H]3O[C@]4(C)CC[C@@H]1[C@]32OO4 (stereo not given in full)
Return: y

Enquiry: Strictly below 80% in growth? Nc1cc(Cl)c(S(N)(=O)=O)cc1S(N)(=O)=O
Return: n

Enquiry: Strictly below 80% in growth? CCOC(=O)C(Cc1ccccc1)(C(=O)OCC)C(Br)C(=O)c1ccccc1 (stereo not given)
Return: y

Enquiry: Strictly below 80% in growth? COc1cc(C2NC(c3ccc(Cl)cc3)C(C)C(=NC(=O)c3cnccn3)C2C)cc(OC)c1OC (stereo not given)
Return: n

Enquiry: Strictly below 80% in growth? COc1cc2c(cc1OC)C1CCN3C(=O)CCC3N1CC2 (stereo not given)
Return: n

Enquiry: Strictly below 80% in growth? Cc1cc(=O)n2n1-c1ccc(Cl)cc1NC(=O)C2
Return: n

Enquiry: Strictly below 80% in growth? N=C(N)/N=C(\CCc1nc2ccccc2[nH]1)c1nc2ccccc2[nH]1
Return: n

====

Test system: SF-295 CNS
Assay: NCI-60 one-dose screen, 48 h (100 = growth as untreated, 0 = no growth, -100 = all killed)
Conditions: 10 µM unless noted
Compounds without any hit were thinned out: in the full panel of roughly 83,000, 20% have a hit.
Consider the following compounds; for each one, report its growth.
API: value field is a number in %; no unit string.

Enquiry: Input CCOc1cccc(C2CC(=O)Nc3cc4c(cc32)OCO4)c1 (stereo not drawn) , output reported growth.
Return: 76

Enquiry: Input CCS(=O)(=O)OCCCl , output reported growth.
Return: 97.2

Enquiry: Input CC1=CC(=O)C(C(C)=Nc2ccccc2Cl)C(=O)O1 (stereo not drawn) , output reported growth.
Return: 121

Enquiry: Input COc1ccc(Cn2c(NCCCN(C)C)nc(=O)n(Cc3ccc(F)cc3)c2=O)cc1 , output reported growth.
Return: 96.2

Enquiry: Input O=Nc1ccc(O)c(=O)cc1 , output reported growth.
Return: 125

Enquiry: Input Cn1cc(-c2csc(-c3c[nH]c4ncccc34)n2)c2cc(Br)cnc21 , output reported growth.
Return: -1.78

Enquiry: Input C=C(C)[C@@H]1C[C@H](O)Cc2cc(Cl)cc(Cl)c2N1 , output reported growth.
Return: 104

Enquiry: Input c1csc([C@@H]2C[C@@H]3Cc4ccc5ccccc5c4N2O3)c1 , output reported growth.
Return: 109

Enquiry: Input COc1cc(/C=C/C(=O)c2ccc(F)cc2)ccc1OCCCCCOc1cc2c(cc1OC)C(=O)N1CCCC1C=N2 (stereo not drawn) , output reported growth.
Return: 72.2

Enquiry: Input C=CC1=C(C(=O)O)N2C(=O)[C@@H](NC(=O)/C(=N\O)c3csc(N)n3)[C@H]2SC1 (stereo in doubt) , output reported growth.
Return: 104

Enquiry: Input COc1ccc(OC)c2c1[nH]c(=O)c1c3ccccc3cn21 , output reported growth.
Return: -76.7

Enquiry: Input COc1cc(/C=C/C(=O)N2CCN(C(=O)/C=C/c3ccccc3)CC2)cc(OC)c1OC , output reported growth.
Return: 110

Enquiry: Input Cc1cc(N2CCOCC2)nc(N2CCOCC2)n1 , output reported growth.
Return: 113

Enquiry: Input CC(=O)Oc1ccc(C23c4ccccc4C2(OC(C)=O)c2cc(OC(C)=O)ccc23)cc1 (stereo not drawn) , output reported growth.
Return: 96.9

Enquiry: Input O=C1OCCCCCCCCCC#Cc2ccccc21 , output reported growth.
Return: 151

Enquiry: Input CC(=O)Nc1ccc2c(c1)Cc1c(F)c(F)c(F)c(F)c1-2 , output reported growth.
Return: 90.5

Enquiry: Input O=C(/C(=N/O)S(=O)(=O)c1ccccc1)c1cccs1 , output reported growth.
Return: 104

Enquiry: Input Cn1c(=O)c2nc(SCc3ccccc3)n(C)c2n(C)c1=O , output reported growth.
Return: 117

Enquiry: Input O=C(CCc1nnc(Cn2ccnc2)o1)c1nc2ccccc2[nH]1 , output reported growth.
Return: 111

Enquiry: Input NCCCc1nnc(CCC(=O)c2nc3ccccc3[nH]2)o1 , output reported growth.
Return: 98.4

Enquiry: Input Cc1ccccc1NC(=O)c1cc2ccccc2cc1O , output reported growth.
Return: 86.4

Enquiry: Input CSc1nnc(C2=CC(=O)c3ccccc3C2=O)n1-c1ccccc1 , output reported growth.
Return: 85.8

Enquiry: Input C[n+]1c2ccccc2c(Nc2ccc(N3CCCCC3)cc2)c2[nH]c3ccccc3c21 , output reported growth.
Return: -85.7

Enquiry: Input CC[N+](CC)(CCOCCOCC[N+](CC)(CC)Cc1ccc([N+](=O)[O-])cc1)Cc1ccc([N+](=O)[O-])cc1 , output reported growth.
Return: 103

Enquiry: Input COC(=O)[C@]12CC[C@@H](C)[C@H](C)[C@@H]1C1=CC[C@@H]3[C@@]4(C)C=C(O)C(=O)[C@@]5(C)COC(=C54)C[C@@]3(C)[C@]1(C)CC2 , output reported growth.
Return: -57.4

Enquiry: Input COc1cc(/C=C2\COc3ccc(O)c(O)c3C2=O)cc(OC)c1 , output reported growth.
Return: 80.3

Enquiry: Input N=C(N)/N=C(\CCc1nc2ccccc2[nH]1)c1nc2ccccc2[nH]1 , output reported growth.
Return: 120

Enquiry: Input Cc1nn(-c2ccccc2)c2c1oc(=O)c1cc(Cl)ccc12 , output reported growth.
Return: 109

Enquiry: Input Nc1cc(Cl)c(S(N)(=O)=O)cc1S(N)(=O)=O , output reported growth.
Return: 111

Enquiry: Input O=C(/C=C/c1ccc(Cl)cc1)c1ccccc1 , output reported growth.
Return: 94.3

Enquiry: Input Cc1ccc(NC(=O)COC(=O)c2ccc(S(=O)(=O)N3CCCCCC3)cc2)cc1 , output reported growth.
Return: 88.9

Enquiry: Input Cc1c(NCc2nnc3n(Cc4ccccc4)c(=O)c4c5c(sc4n23)CCCC5)c(=O)n(-c2ccccc2)n1C , output reported growth.
Return: 67.2

Enquiry: Input O=C(CCc1nnc(SCc2ccccc2)s1)c1nc2ccccc2[nH]1 , output reported growth.
Return: 92.1

Enquiry: Input CC1(C)OC(=O)C(=Cc2ccccc2Br)C(=O)O1 , output reported growth.
Return: 99.7

Enquiry: Input COc1ccc(Nc2ccnc(NCCCNc3ccnc4cc(Cl)ccc34)n2)cc1 , output reported growth.
Return: -82.2

Enquiry: Input COc1cc(OC)c2sc(-c3ccc(-n4cncc4-c4ccc(N)cc4)cc3)nc2c1 , output reported growth.
Return: 48.1

Enquiry: Input CCOC(=O)C(Cc1ccccc1)(C(=O)OCC)C(Br)C(=O)c1ccccc1 (stereo not drawn) , output reported growth.
Return: 94.5

Enquiry: Input CCCC[N+](CCCC)=c1ccc2nc3c(C)cc(N(CC)CC)cc3sc-2c1 , output reported growth.
Return: -24.4

Enquiry: Input CCOc1nc(-c2ccccc2)cc2c(O)c(C(=O)n3nc(C)cc3C)[nH]c(=O)c12 , output reported growth.
Return: 101

Enquiry: Input COc1cc2c(c(OC)c1OC)CCc1cnoc1-2 , output reported growth.
Return: 108

Enquiry: Input C[n+]1c2ccccc2c(NC2CCNCC2)c2[nH]c3ccccc3c21 , output reported growth.
Return: 13.6

Enquiry: Input O=C1CCCN1C1CCN(Cc2cc3ccccc3[nH]c2=O)c2ccccc21 (stereo not drawn) , output reported growth.
Return: 72.3

Enquiry: Input COc1cc(/C=C/C(=O)Nc2cccnc2Nc2cc(OC)c(OC)c(OC)c2)cc(OC)c1OC , output reported growth.
Return: 92.8

====

Consider the following compounds; for each one, report its growth.
System: SF-268 CNS
Assay: NCI-60 one-dose screen, 48 h (100 = growth as untreated, 0 = no growth, -100 = all killed)
Details: 10 µM unless noted
The panel holds about 83,000 compounds, 20% with a hit somewhere; the sample as a whole holds those more often.
API: value field is a number in %; no unit string.

Enquiry: Output reported growth of the compound NNC(=O)NO on SF-268 CNS.
Return: 104

Enquiry: Output reported growth of the compound CCCOc1ccc2c(c1)CC[C@@H]1[C@@H]2CC[C@@]2(C)[C@H]1CC[C@]2(C)O on SF-268 CNS.
Return: 81.5

Enquiry: Output reported growth of the compound COc1cc(C2CC(c3ccc(C)cc3)=NN2C(C)=O)ccc1Oc1ccnc2cc(Cl)ccc12 (configuration not stated) on SF-268 CNS.
Return: 41.9

Enquiry: Output reported growth of the compound CCCCn1c(Cc2ccc(Cl)cc2)nc2cc(OC)c(OC)cc2c1=O on SF-268 CNS.
Return: 80

Enquiry: Output reported growth of the compound O=C1NCC(Nc2ccc(Br)cc2Cl)C(=O)N1 (configuration not stated) on SF-268 CNS.
Return: 105

Enquiry: Output reported growth of the compound O=C(CCc1nnc2sc(-c3ccc(Cl)cc3Cl)nn12)c1nc2ccccc2[nH]1 on SF-268 CNS.
Return: 15.2

Enquiry: Output reported growth of the compound O=c1c(O)cccn1CCCNCCCN(CCCn1cccc(O)c1=O)CCCn1cccc(O)c1=O on SF-268 CNS.
Return: 94

Enquiry: Output reported growth of the compound CCCc1cccc(CCC)c1O on SF-268 CNS.
Return: 109

Enquiry: Output reported growth of the compound CCN1C2=C(SC(=S)C1=C1SC(C(=O)OC)=C(C(=O)OC)S1)SC(=Nc1ccc(OC)cc1)C2=O on SF-268 CNS.
Return: 1.48

Enquiry: Output reported growth of the compound CC(=O)n1c2ccccc2c2ccccc21 on SF-268 CNS.
Return: 115

Enquiry: Output reported growth of the compound COc1ccc(-c2csc(NC(=O)c3cc(OC)c(OC)c(OC)c3)n2)cc1 on SF-268 CNS.
Return: 102

Enquiry: Output reported growth of the compound N#CCNc1ccccc1N on SF-268 CNS.
Return: 102
